- TARGET_UNDER_TEST: UniProt:P11712
- Sequence (P11712 whole entry): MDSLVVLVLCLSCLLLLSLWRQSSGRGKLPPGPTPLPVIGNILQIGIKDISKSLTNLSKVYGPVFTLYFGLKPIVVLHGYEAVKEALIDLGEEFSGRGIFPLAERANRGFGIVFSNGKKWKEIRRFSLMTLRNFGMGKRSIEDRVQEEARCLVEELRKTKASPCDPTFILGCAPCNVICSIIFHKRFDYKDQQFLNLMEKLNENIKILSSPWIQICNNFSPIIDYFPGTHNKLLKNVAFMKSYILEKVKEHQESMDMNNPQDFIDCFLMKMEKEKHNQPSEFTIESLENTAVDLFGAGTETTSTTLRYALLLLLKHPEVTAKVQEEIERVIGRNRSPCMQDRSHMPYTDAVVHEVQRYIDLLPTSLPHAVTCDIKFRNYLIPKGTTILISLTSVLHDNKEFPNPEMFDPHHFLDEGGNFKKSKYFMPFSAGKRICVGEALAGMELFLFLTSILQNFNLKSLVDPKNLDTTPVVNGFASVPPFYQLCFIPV
- TEST_DESCRIPTION: Inhibition of CYP2C9 at 10 uM
- Format: ADME
ASSAY_METRIC: inhibition at 10 µM

Challenge: Form: Entry = `O=C(O)C[C@@H]1c2ccccc2C[C@H]1NC(=O)c1cc2sc(Cl)c(Cl)c2[nH]1` | System = UniProt:P11712 | inhibition at 10 µM = ____
Response given: < 50%

Challenge: // same read-out, input: `COCC[C@H](C(=O)O)[C@@H]1c2ccccc2C[C@H]1NC(=O)c1cc2sc(Cl)c(Cl)c2[nH]1`
Response given: < 50%

###

- TEST_DESCRIPTION: Volume of distribution in Wistar rat at […], iv and 11 to 12.2 umol/kg, po
- Type: ADME, organism-based
- CONDITION_LABEL: in vivo
ASSAY_METRIC: Vd (L/kg)
Dear colleague, please return just the value in L/kg, with no unit written.

Challenge: Tell me the measured Vd of `O=C(O)C[C@@H]1c2ccccc2C[C@H]1NC(=O)c1cc2sc(Cl)c(Cl)c2[nH]1` , please.
Response given: 0.2

Challenge: // same read-out, input: `COCC[C@H](C(=O)O)[C@@H]1c2ccccc2C[C@H]1NC(=O)c1cc2sc(Cl)c(Cl)c2[nH]1`
Response given: 0.2

###

- TARGET_UNDER_TEST: Voltage-gated inwardly rectifying potassium channel KCNH2 (Homo sapiens)
- Sequence (Q12809 whole entry): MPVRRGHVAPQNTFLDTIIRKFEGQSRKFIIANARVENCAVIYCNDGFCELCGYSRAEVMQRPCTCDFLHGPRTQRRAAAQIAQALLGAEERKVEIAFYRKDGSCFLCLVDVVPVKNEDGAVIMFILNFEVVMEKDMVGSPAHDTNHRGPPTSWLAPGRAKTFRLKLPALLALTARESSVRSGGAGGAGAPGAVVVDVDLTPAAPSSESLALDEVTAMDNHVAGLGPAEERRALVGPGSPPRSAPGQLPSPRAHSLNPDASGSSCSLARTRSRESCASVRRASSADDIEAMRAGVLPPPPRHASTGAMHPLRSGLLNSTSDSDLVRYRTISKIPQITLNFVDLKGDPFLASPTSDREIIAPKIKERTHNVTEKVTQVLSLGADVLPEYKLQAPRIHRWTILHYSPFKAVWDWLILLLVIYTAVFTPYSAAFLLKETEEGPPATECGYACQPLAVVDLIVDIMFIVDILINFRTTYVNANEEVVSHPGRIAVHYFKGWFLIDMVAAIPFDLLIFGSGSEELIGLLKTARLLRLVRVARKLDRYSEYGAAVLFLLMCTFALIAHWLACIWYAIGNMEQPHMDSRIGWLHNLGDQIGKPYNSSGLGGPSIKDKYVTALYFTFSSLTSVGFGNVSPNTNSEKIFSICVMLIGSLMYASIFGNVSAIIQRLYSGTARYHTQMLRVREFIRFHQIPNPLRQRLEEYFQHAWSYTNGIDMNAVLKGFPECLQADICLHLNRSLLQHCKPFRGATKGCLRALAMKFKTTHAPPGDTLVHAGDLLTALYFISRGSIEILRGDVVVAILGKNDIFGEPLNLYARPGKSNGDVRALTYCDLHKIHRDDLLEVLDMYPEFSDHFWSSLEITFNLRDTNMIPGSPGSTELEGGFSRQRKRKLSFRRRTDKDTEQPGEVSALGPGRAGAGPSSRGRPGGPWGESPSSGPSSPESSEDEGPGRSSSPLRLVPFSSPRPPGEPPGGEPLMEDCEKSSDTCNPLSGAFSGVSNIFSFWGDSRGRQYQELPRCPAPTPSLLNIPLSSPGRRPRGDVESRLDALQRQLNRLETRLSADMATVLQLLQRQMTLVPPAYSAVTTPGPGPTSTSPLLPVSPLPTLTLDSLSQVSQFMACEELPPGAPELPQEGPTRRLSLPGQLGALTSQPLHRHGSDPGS
pIC50: −log10 of the molar value.
ASSAY_METRIC: pIC50

Challenge: Tell me the measured pIC50 of `O=C(O)C[C@@H]1c2ccccc2C[C@H]1NC(=O)c1cc2sc(Cl)c(Cl)c2[nH]1` , please.
Response given: < 4.52

###

- TARGET_UNDER_TEST: UniProt P08684
- Sequence (P08684 whole entry): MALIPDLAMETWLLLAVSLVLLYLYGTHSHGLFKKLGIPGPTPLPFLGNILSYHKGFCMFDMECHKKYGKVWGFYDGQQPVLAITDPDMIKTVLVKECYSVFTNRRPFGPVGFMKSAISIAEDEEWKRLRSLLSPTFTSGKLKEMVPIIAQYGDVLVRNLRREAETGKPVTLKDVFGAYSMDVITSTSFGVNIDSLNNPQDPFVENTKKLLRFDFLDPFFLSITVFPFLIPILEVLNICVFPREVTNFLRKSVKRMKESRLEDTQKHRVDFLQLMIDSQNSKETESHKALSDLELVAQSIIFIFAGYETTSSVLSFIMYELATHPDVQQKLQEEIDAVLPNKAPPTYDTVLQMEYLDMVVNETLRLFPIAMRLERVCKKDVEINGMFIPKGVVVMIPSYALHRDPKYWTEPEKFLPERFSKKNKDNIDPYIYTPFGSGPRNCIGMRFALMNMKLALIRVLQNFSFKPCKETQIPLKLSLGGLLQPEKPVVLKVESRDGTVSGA
- TEST_DESCRIPTION: Inhibition of […] at 10 uM
- Assay type: ADME
Kindly state inhibition at 10 µM for each of the entries shown.

Challenge: Form: Entry = `O=C(O)C[C@@H]1c2ccccc2C[C@H]1NC(=O)c1cc2sc(Cl)c(Cl)c2[nH]1` | System = UniProt P08684 | inhibition at 10 µM = ____
Response given: < 50%

Challenge: // same read-out, input: `COCC[C@H](C(=O)O)[C@@H]1c2ccccc2C[C@H]1NC(=O)c1cc2sc(Cl)c(Cl)c2[nH]1`
Response given: < 50%

###

- TARGET_UNDER_TEST: Glycogen phosphorylase, liver form (Homo sapiens, UniProt P06737)
- Sequence (P06737 whole entry): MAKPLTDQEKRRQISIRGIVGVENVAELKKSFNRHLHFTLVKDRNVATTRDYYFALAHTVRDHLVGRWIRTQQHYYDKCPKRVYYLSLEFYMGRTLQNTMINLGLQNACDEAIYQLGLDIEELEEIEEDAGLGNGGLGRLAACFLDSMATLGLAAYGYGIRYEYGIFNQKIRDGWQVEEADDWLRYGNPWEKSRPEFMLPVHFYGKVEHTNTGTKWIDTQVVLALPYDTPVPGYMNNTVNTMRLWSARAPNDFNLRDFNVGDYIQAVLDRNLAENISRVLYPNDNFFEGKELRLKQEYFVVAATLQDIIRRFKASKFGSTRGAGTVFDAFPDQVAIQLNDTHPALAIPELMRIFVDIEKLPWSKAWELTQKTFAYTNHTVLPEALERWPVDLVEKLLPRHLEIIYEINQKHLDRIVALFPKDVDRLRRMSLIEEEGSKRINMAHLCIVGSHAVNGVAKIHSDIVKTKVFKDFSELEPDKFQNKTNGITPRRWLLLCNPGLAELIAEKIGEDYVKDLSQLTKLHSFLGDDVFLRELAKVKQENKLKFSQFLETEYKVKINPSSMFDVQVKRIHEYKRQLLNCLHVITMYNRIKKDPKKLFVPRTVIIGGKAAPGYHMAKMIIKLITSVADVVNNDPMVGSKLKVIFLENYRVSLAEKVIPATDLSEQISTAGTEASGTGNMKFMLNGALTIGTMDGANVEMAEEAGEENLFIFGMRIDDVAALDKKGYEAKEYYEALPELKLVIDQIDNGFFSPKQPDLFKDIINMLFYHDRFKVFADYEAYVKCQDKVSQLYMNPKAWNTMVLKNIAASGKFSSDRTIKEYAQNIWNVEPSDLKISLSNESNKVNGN
- TEST_DESCRIPTION: Inhibition of human recombinant liver glycogen phosphorylase by multienzyme-coupled reaction
Kindly state pIC50 for each of the entries shown.
// scale note: pIC50 = -log10(conc_M); give the bare number

Challenge: Tell me the measured pIC50 of `O=C(O)CCO[C@@H]1c2ccccc2C[C@H]1NC(=O)c1cc2sc(Cl)c(Cl)c2[nH]1` , please.
Response given: 7.23

Challenge: // same read-out, input: `O=C(O)C[C@@H]1c2ccccc2C[C@H]1NC(=O)c1cc2cc(Cl)cc(F)c2[nH]1`
Response given: 7.28

Challenge: // same read-out, input: `O=C(O)C[C@@H]1c2ccccc2C[C@H]1NC(=O)c1cc2sc(Cl)c(Cl)c2[nH]1`
Response given: 7.74

Challenge: // same read-out, input: `O=C(O)CSC[C@@H]1c2ccccc2C[C@H]1NC(=O)c1cc2sc(Cl)c(Cl)c2[nH]1`
Response given: 7.40

Challenge: // same read-out, input: `O=C(O)C[C@@H]1c2ccccc2C[C@H]1NC(=O)c1cc2cc(Cl)ncc2[nH]1`
Response given: 6.59

Challenge: // same read-out, input: `O=C(O)C[C@H]1c2ccccc2C[C@@H]1NC(=O)c1cc2cc(Cl)sc2[nH]1`
Response given: 5.92

Challenge: // same read-out, input: `O=C(O)CC[C@@H]1c2ccccc2C[C@H]1NC(=O)c1cc2sc(Cl)c(Cl)c2[nH]1`
Response given: 7.25

Challenge: // same read-out, input: `O=C(O)C[C@@H]1c2ccccc2C[C@H]1NC(=O)c1cc2cc(Cl)sc2[nH]1`
Response given: 7.40

Challenge: // same read-out, input: `O=C(O)CC(=O)N[C@@H]1c2ccccc2C[C@H]1NC(=O)c1cc2sc(Cl)c(Cl)c2[nH]1`
Response given: 7.25

Challenge: // same read-out, input: `O=C(O)CCCS(=O)(=O)C[C@@H]1c2ccccc2C[C@H]1NC(=O)c1cc2sc(Cl)c(Cl)c2[nH]1`
Response given: 7.38

Challenge: // same read-out, input: `O=C(O)C[C@@H]1c2ccccc2C[C@H]1NC(=O)c1cc2cc(Cl)ccc2[nH]1`
Response given: 7.24

Challenge: // same read-out, input: `O=C(O)CCC[C@@H]1c2ccccc2C[C@H]1NC(=O)c1cc2sc(Cl)c(Cl)c2[nH]1`
Response given: 7.27

Challenge: // same read-out, input: `O=C(O)C[C@H]1c2ccccc2C[C@@H]1NC(=O)c1cc2sc(Cl)c(Cl)c2[nH]1`
Response given: 5.82

Challenge: // same read-out, input: `O=C(O)C[C@@H]1c2ccccc2C[C@H]1NC(=O)c1cc2cc(Cl)c(F)cc2[nH]1`
Response given: 7.12

Challenge: // same read-out, input: `O=C(O)CO[C@@H]1c2ccccc2C[C@H]1NC(=O)c1cc2sc(Cl)c(Cl)c2[nH]1`
Response given: 7.52
